Hi there, I'd appreciate the recorded pIC50 for every entry that follows.
Test system: phosphorylation of Serine 473 in Akt
protocol details: In Vitro Phospho-Ser473 Akt Assay in MDA-MB-468 cells
Assay type: cell-based
setup conditions: Homo sapiens, MDA-MB-468, read-out: IC50 values against mTOR, phospho-Ser473 Akt assay, MDA-MB-468 cells
pIC50: −log10 of the molar value.

What does the record list as pIC50 for COc1ccc(-c2ccc3c(N4CCOC[C@@H]4C)nc(NC4CCCC4)nc3n2)cc1CO [Example 18aw] ? > 7.00

Also, CC(C)N(C)Cc1cc(-c2ccc3c(N4CCOC[C@@H]4C)nc(N4CCOC[C@@H]4C)nc3n2)ccc1F [Example 4ai] please. > 7.00

# iterate: C[C@@H]1CN(c2nc(N3CCOC[C@@H]3C)c3ccc(-c4ccc([N+](=O)[O-])cc4)nc3n2)C[C@H](C)O1 [Example 1ci] > 6.52

Entry to check: COc1ccc(-c2ccc3c(N4CCOC[C@@H]4C)nc(N4CCOC[C@@H]4C)nc3n2)cc1CNCCC(C)(C)C [Example 4as] > 7.00

Try COc1ccc(-c2ccc3c(N4CCOC[C@@H]4C)nc(N4CCC(CCO)CC4)nc3n2)cc1CO [Example 18g] next. > 7.00

// repeat for COc1ccc(-c2ccc3c(N4CCOC[C@@H]4C)nc(N4CCN(C)CC4)nc3n2)cc1CO [Example 18cg] and report > 6.52

Can you check COc1ccc(-c2ccc3c(N4CCOC[C@@H]4C)nc(N4CCOC[C@@H]4C)nc3n2)cc1CNC1CCCCCCC1 [Example 4bf] next? > 7.00

Continue with CCNc1nc(N2CCOC[C@@H]2C)c2ccc(-c3ccc(OC)c(CO)c3)nc2n1 [Example 18bq] > 6.52

Param item: COc1ccc(-c2ccc3c(N4CCOC[C@@H]4C)nc(Nc4ccccc4)nc3n2)cc1CO [Example 18m] > 7.00

Do the same for COc1ccc(-c2ccc3c(N4CCOC[C@@H]4C)nc(N4CCCC(c5nc(C)no5)C4)nc3n2)cc1CO (stereo partly drawn) [Example 18ar] please > 7.00

Another: C[C@H]1COCCN1c1nc(N2CCOC[C@@H]2C)c2ccc(-c3ccc(O)cc3)nc2n1 [Example 1e] > 7.00

Same question for COc1ccc(-c2ccc3c(N4CCOC[C@@H]4C)nc(N[C@H](C)CO)nc3n2)cc1CO [Example 18bw] please. > 7.00

Likewise for COc1ccc(-c2ccc3c(N4CCOC[C@@H]4C)nc(-n4ccnc4C)nc3n2)cc1CO [Example 18cn] ? > 6.52

// next record COc1ccc(-c2ccc3c(N4CCOC[C@@H]4C)nc(N4CCCC(N)C4)nc3n2)cc1CO (stereo partly drawn) [Example 18au] > 7.00

How about this molecule: COc1ccc(-c2ccc3c(N4CCOC[C@@H]4C)nc(-n4cc(Br)nc4C)nc3n2)cc1CO [Example 18bc] > 6.52

Would you mind doing C[C@H]1COCCN1c1nc(N2CCOC[C@@H]2C)c2ccc(-c3ccc(CN4CC[C@H](O)C4)cc3)nc2n1 [Example 4d] as well? > 7.00

Follow-up entry: C[C@H]1COCCN1c1nc(N2CCOC[C@@H]2C)c2ccc(-c3cnn(C)c3)nc2n1 [Example 1s] > 7.00

Input COc1ccc(-c2ccc3c(N4CCOC[C@@H]4C)nc(N4CCOC[C@@H]4C)nc3n2)cc1CNCC(C)C [Example 4az] > 7.00

Can you check COc1ccc(-c2ccc3c(N4CCOC[C@@H]4C)nc(N4CCC(CN)CC4)nc3n2)cc1CO [Example 18s] next? > 7.00

Now try COc1ccc(-c2ccc3c(N4CCOC[C@@H]4C)nc(N4CCC(c5ccncc5)CC4)nc3n2)cc1CO [Example 18bi] . > 7.00

Again, but for C[C@H]1COCCN1c1nc(N2CCOC[C@@H]2C)c2ccc(-c3ccc(F)c(CN)c3)nc2n1 [Example 4u] > 7.00

Now the same for COc1ccc(-c2ccc3c(N4CCOC[C@@H]4C)nc(NC(C)(C)CO)nc3n2)cc1CO [Example 18cc] > 7.00

Then COc1ccc(-c2ccc3c(N4CCOC[C@@H]4C)nc(-c4cccc(C=O)c4)nc3n2)cc1CO [Example 19b] ? > 6.52

What do you have for CCC1CCC(C)N(c2nc(N3CCOC[C@@H]3C)c3ccc(-c4ccc(OC)c(CO)c4)nc3n2)C1 (stereo partly drawn) [Example 18bd] ? > 7.00

Now this one: CNCCOc1nc(N2CCOC[C@@H]2C)c2ccc(-c3ccc(OC)c(CO)c3)nc2n1 [Example 18db] > 7.00

How about this molecule: C[C@H]1COCCN1c1nc(N2CCOC[C@@H]2C)c2ccc(-c3ccc(C#N)cc3)nc2n1 [Example 1bl] > 7.00

Then COc1ccc(-c2ccc3c(N4CCOC[C@@H]4C)nc(NC(CO)CO)nc3n2)cc1CO [Example 18cd] ? > 6.52

Also C[C@H]1COCCN1c1nc(N2CCOC[C@@H]2C)c2ccc(-c3ccc(F)c(CN4CC[C@@H](O)C4)c3)nc2n1 [Example 4ad] , if possible. > 6.52

Here is the next molecule: C[C@@H]1CN(c2nc(N3CCOC[C@@H]3C)c3ccc(-c4ccsc4)nc3n2)C[C@H](C)O1 [Example 1k] > 7.00

Field entry: COc1ccc(-c2ccc3c(N4CCOC[C@@H]4C)nc(N4C[C@@H](C)O[C@@H](C)C4)nc3n2)cc1 [Example 1cj] > 6.52

// data source = patent US9102670B2
